Source listed as ChEMBL document CHEMBL5344414.

biological target: BCL2L1/BAD (Homo sapiens, UniProt Q07817); test: Inhibition of BAD/His-SUMO tagged BCL-XL (1 to 209 residues; missing 27 to 82 residues) (unknown origin) overexpressed in Escherichia coli BL21 protein-protein interaction by fluorescence anisotropy competition assay
Sequence (Q92934 whole entry, the tested form may be a part): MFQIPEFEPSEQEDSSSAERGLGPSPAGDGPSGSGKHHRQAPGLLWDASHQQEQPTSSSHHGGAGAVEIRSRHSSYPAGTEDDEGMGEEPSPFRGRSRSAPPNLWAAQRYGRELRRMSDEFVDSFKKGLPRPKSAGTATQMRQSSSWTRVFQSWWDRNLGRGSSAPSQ
Sequence (Q07817 whole entry, the tested form may be a part): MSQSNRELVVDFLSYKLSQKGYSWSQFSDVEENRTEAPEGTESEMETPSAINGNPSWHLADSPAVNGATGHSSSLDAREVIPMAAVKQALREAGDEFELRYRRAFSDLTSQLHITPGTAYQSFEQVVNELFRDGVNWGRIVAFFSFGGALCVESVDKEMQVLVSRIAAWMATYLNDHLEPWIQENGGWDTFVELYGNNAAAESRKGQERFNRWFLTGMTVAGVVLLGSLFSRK
pIC50: −log10 of the molar value.
test-readout: pIC50

-- ask Specify pIC50 for CSCC[C@H](NC(=O)[C@H](CCCNC(=N)N)NC(=O)[C@H](CCCNC(=N)N)NC(=O)[C@H](CC(C)C)NC(=O)[C@H](CCC(=O)O)NC(=O)[C@H](CCCNC(=N)N)NC(=O)CNC(=O)[C@H](Cc1ccc(O)cc1)NC(=O)[C@H](CCCNC(=N)N)NC(C)=O)C(=O)N[C@H]1CS2=S(C[C@@H](C(=O)N[C@@H](CC(=O)O)C(=O)N[C@@H](CO)C(=O)N[C@@H](Cc3ccccc3)C(=O)N[C@@H](CCCCN)C(=O)N[C@@H](CCCCN)C(N)=O)NC(=O)[C@H](Cc3ccccc3)NC(=O)[C@H](CCC(=O)O)NC(=O)[C@H](CC(=O)O)NC1=O)C(=O)NC2=O (stereo partly specified) , system BCL2L1/BAD (Homo sapiens, UniProt Q07817).
-- reply < 4.30

* * *

molecular target: BCL2L1/BAD (Homo sapiens, UniProt Q07817); assay: Inhibition of BAD/His-SUMO tagged BCL-XL (1 to 209 residues; missing 27 to 82 residues) (unknown origin) overexpressed in Escherichia coli BL21 protein-protein interaction by fluorescence anisotropy competition assay
test-readout: IC50

-- ask State, in one line, measured IC50 of CSCC[C@@H]1NC(=O)[C@H](CCCNC(=N)N)NC(=O)[C@@H](NC(=O)[C@H](CC(C)C)NC(=O)[C@H](CCC(=O)O)NC(=O)[C@H](CCCNC(=N)N)NC(=O)CNC(=O)[C@H](Cc2ccc(O)cc2)NC(=O)[C@H](CCCNC(=N)N)NC(C)=O)CS2=S(C[C@@H](C(=O)N[C@@H](CCC(=O)O)C(=O)N[C@@H](Cc3ccccc3)C(=O)N[C@H](C(=O)N[C@@H](CC(=O)O)C(=O)N[C@@H](CO)C(=O)N[C@@H](Cc3ccccc3)C(=O)N[C@@H](CCCCN)C(=O)N[C@@H](CCCCN)C(N)=O)C(C)C)NC(=O)[C@H](CO)NC1=O)C(=O)NC2=O (stereo partly specified)
-- reply > 50 µM

* * *

target: BCL2L1/BAD (Homo sapiens, UniProt Q07817); assay: Inhibition of BAD/His-SUMO tagged BCL-XL (1 to 209 residues; missing 27 to 82 residues) (unknown origin) overexpressed in Escherichia coli BL21 protein-protein interaction by fluorescence anisotropy competition assay
IC50 values for the compounds below.

-- ask State, in one line, measured IC50 of CSCC[C@H](NC(=O)[C@H](CCCNC(=N)N)NC(=O)[C@H](CCCNC(=N)N)NC(=O)[C@H](CC(C)C)NC(=O)[C@H](CCC(=O)O)NC(=O)[C@H](CCCNC(=N)N)NC(=O)CNC(=O)[C@H](Cc1ccc(O)cc1)NC(=O)[C@H](CCCNC(=N)N)NC(C)=O)C(=O)N[C@@H](CO)C(=O)N[C@H]1CS2=S(C[C@@H](C(=O)N[C@@H](CO)C(=O)N[C@@H](Cc3ccccc3)C(=O)N[C@@H](CCCCN)C(=O)N[C@@H](CCCCN)C(N)=O)NC(=O)[C@H](C(C)C)NC(=O)[C@H](Cc3ccccc3)NC(=O)[C@H](CCC(=O)O)NC1=O)C(=O)NC2=O (some centres not stated)
-- reply > 50 µM

-- ask State, in one line, measured IC50 of CSCC[C@H](NC(=O)[C@@H]1CS2=S(C[C@H](NC(=O)CNC(=O)[C@H](Cc3ccc(O)cc3)NC(=O)[C@H](CCCNC(=N)N)NC(C)=O)C(=O)N[C@@H](CCC(=O)O)C(=O)N[C@@H](CC(C)C)C(=O)N[C@@H](CCCNC(=N)N)C(=O)N1)C(=O)NC2=O)C(=O)N[C@@H](CO)C(=O)N[C@@H](CC(=O)O)C(=O)N[C@@H](CCC(=O)O)C(=O)N[C@@H](Cc1ccccc1)C(=O)N[C@H](C(=O)N[C@@H](CC(=O)O)C(=O)N[C@@H](CO)C(=O)N[C@@H](Cc1ccccc1)C(=O)N[C@@H](CCCCN)C(=O)N[C@@H](CCCCN)C(N)=O)C(C)C (some centres not stated)
-- reply > 50 µM
